Test: Stability (placement) test of ADCs at 40° C. in dark for 14 days, DAR and polymer content
Format: physicochemical
Conditions: Day 14, 40° C. in dark
*1 amine or outer side, *2 acyl side, *3 side chain or, on linkers, in order; H or OH if unused. Where a SMILES comes first, the peptide text is derived from it. [ ]: non-standard residue; d: D form. The star is where a group is joined. Exatecan = CC[C@@]1(O)C(=O)OCc2c1cc1n(c2=O)Cc2c-1nc1cc(F)c(C)c3c1c2[C@@H](N*)CC3; Propanoyl(3-maleimido) = O=C1C=CC(=O)N1CCC(=O)*; X1 = O=C(CN1CCOCCN([*:1])CCOCC1)[*:2]; NHCH2OCH2CO = O=C(COCN[*:1])[*:2]
quantity: DAR
Lab note: record the figure alone, no unit after it.

# compound, DAR
measured = [
    ("C=C1C[C@@H]2CC[C@@]34C[C@H]5OC6C(O[C@H]7CC[C@H](CC(=O)C[C@@H]8[C@@H](OC)[C@@H](C[C@H](O)CNC(=O)OCc9ccc(NC(=O)[C@H](CCCNC(N)=O)NC(=O)[C@@H](NC(=O)CN%10CCOCCN(C(=O)CCN%11C(=O)C=CC%11=O)CCOCC%10)C(C)C)cc9)O[C@H]8C[C@H]8O[C@@H](CC[C@@H]1O2)C[C@@H](C)C8=C)O[C@@H]7[C@@H]6O3)[C@H]5O4 [Example 87]", 3.81),
    ("CC[C@@]1(O)C(=O)OCc2c1cc1n(c2=O)Cc2c-1nc1cc(F)c(C)c3c1c2[C@@H](NC(=O)COCNC(=O)CNC(=O)[C@H](Cc1ccccc1)NC(=O)CNC(=O)CNC(=O)CN1CCOCCN(C(=O)CCN2C(=O)C=CC2=O)CCOCC1)CC3 [Example 22] ({Propanoyl(3-maleimido)}-[X1]GGFG[NHCH2OCH2CO]-Exatecan)", 4.15),
]

Field: next compound
Ask: Answer with the recorded DAR of C=C1C[C@@H]2CC[C@@]34C[C@H]5OC6C(O[C@H]7CC[C@H](CC(=O)C[C@@H]8[C@@H](OC)[C@@H](C[C@H](O)CNC(=O)CNC(=O)[C@H](Cc9ccccc9)NC(=O)CNC(=O)CN9CCOCCOCCN(C(=O)CCCC%10C(=O)C=CC%10=O)CCOCCOCC9)O[C@H]8C[C@H]8O[C@@H](CC[C@@H]1O2)C[C@@H](C)C8=C)O[C@@H]7[C@@H]6O3)[C@H]5O4 [Example 42] only.
Result: 4.08
